# Test system: whole complement
# assay_name: In vivo complement inhibition in guinea pigs (whole complement of serum, capillary tube assay)
# Parameters: species or system guinea pig
# applied_conditions: intravenous, 200 mg/kg, 120 mins.
reported_metric: In Vivo Activity (Guinea Pig) % Inhibition Intravenous 120 mins. (%)

>>> value_reported("O=C(Nc1ccc(C(=O)Nc2ccc(S(=O)(=O)[O-])c3cc(S(=O)(=O)[O-])cc(S(=O)(=O)[O-])c23)c(S(=O)(=O)[O-])c1)Nc1ccc(C(=O)Nc2ccc(S(=O)(=O)[O-])c3cc(S(=O)(=O)[O-])cc(S(=O)(=O)[O-])c23)c(S(=O)(=O)[O-])c1.[Na+].[Na+].[Na+].[Na+].[Na+].[Na+].[Na+].[Na+]")
-29
>>> value_reported("O=C(Nc1ccc(C(=O)Nc2cc(S(=O)(=O)[O-])cc3cc(S(=O)(=O)[O-])cc(S(=O)(=O)[O-])c23)cc1)Nc1ccc(C(=O)Nc2cc(S(=O)(=O)[O-])cc3cc(S(=O)(=O)[O-])cc(S(=O)(=O)[O-])c23)cc1.[Na+].[Na+].[Na+].[Na+].[Na+].[Na+]")
-16
